# Test system: HCC 2998
# protocol summary: NCI tumour cell line growth inhibition, 48 h
Activity calls are given as the source filed them. Rule as the data show it: active = GI50 up to about 1.1 µM and inactive = higher.
Choose the fitting class; nothing outside y for active, n for inactive is accepted.

Some solved entries appear below for comparison.
Cn1c(=O)c2c(nc(NCCCCl)n2CC(=O)NCCCCl)n(C)c1=O ... n
CCCCCCNCCCNc1c2ccccc2nc2cccc([N+](=O)[O-])c12 ... y
O=C(OC1C#CCSCC#C/C=C\1)c1cnc2ccccc2n1 (stereo unspecified) ... n
Cc1ccc2c(O)cc(-c3ccc4ccccc4c3)nc2n1 ... n
COc1cc2cc(C(=O)N3CC(CCl)c4ccc([N+](C)(C)Cc5ccccc5[N+](=O)[O-])cc43)[nH]c2c(OC)c1OC (stereo unspecified) ... n
CC(C)=CC(=O)c1[nH]c2ccccc2c1CC(=O)NCCc1c[nH]cn1 ... n
CN(N=O)C(=O)NC(CCCCNC(=O)OCc1ccccc1)C(=O)OCc1ccccc1 (stereo unspecified) ... n
COC(=O)c1ccccc1C1CN=NC12Cc1c(ccc3c1CCC3)C2=O (stereo unspecified) ... n

Ask | // param item: C/C=C1\C[C@@H]2C(OC)Nc3cc(O)c(OC)cc3C(=O)N2C1 (stereo partly specified) ; yields the recorded call
Reply | y

Ask | Dear all, I need the recorded test outcome for Sc1nnc(C23CC4CC(CC(C4)C2)C3)n1-c1ccc(Cl)cc1 , thank you.
Reply | n

Ask | Just curious, what result did Nc1nc(-c2ccc(Cl)c([N+](=O)[O-])c2)cs1 get here?
Reply | n

Ask | Record lookup: outcome of this test for COC/C=C\[C@@]1(O)CCCC[C@@H]1CC(OC)OC ?
Reply | n

Ask | // return assay outcome for CC[P+]1(CC)CCCC1
Reply | n

---

# Test system: CCRF-CEM
# protocol summary: NCI tumour cell line growth inhibition, 48 h
Activity calls are given as the source filed them. Cut-off read from the data, not from the text of the source: active = GI50 up to about 1.1 µM and inactive = higher.
reported metric: GI50

Ask | Quick one: GI50 for Cc1ccc2c(O)cc(-c3ccc4ccccc4c3)nc2n1 ?
Reply | 3.66 µM (inactive)

---

Item-by-item account of GI50
# Test system: ACHN
# protocol summary: NCI tumour cell line growth inhibition, 48 h
Calls of active or inactive are those of the source. No stated cut-off is given here; in the data, active = GI50 up to about 1.1 µM and inactive = higher.

These recorded examples may help you get a feel for the data.
CCOC(=O)c1ccc(N(CCOS(C)(=O)=O)CCOS(C)(=O)=O)cc1 ... 26 µM (inactive)
NC(=O)C(=Cc1ccc(C(O)P(=O)(O)O)cc1)C(N)=O (stereo unspecified) ... > 100 µM (inactive)
Oc1ccc(Br)cc1/C=N/c1ccc(/N=C/c2cc(Br)ccc2O)cc1 ... > 100 µM (inactive)

Ask | Find the measured GI50: item CN1C(=O)CC2CCCN2C1=O (stereo unspecified) , target or system ACHN.
Reply | > 100 µM (inactive)

Ask | Value wanted: GI50 (ACHN) of entry S=c1ssc2c3ssc(=S)c3n(Cc3ccccc3)c12
Reply | > 100 µM (inactive)

Ask | Find GI50 (ACHN) for the entry COc1nc2c(nc(N)n2C2OC(CO)C(O)C(O)C2O)c(=O)n1C (stereo unspecified)
Reply | > 100 µM (inactive)

---

# Tested on: OVCAR-8
# protocol summary: NCI tumour cell line growth inhibition, 48 h
The source made the active and inactive calls. No stated cut-off is given here; in the data, active = GI50 up to about 1.1 µM and inactive = higher.
Catalogue of GI50 values

// known answers, use as guide
NC(=O)NC(=O)Nc1ccc(Br)cc1 ... > 13.7 µM (inactive)
C=C1C(=O)OC2/C=C(\COC(C)=O)CCC(OC(C)=O)C3=CC(OC3=O)C12 (stereo not given) ... 3.31 µM (inactive)
NCCCN(CCCN)CCN(CCN(CCCN)CCCN)CCN(CCCN)CCCN ... 44.6 µM (inactive)
CCOC(=O)C1=C(C)N(NC(=O)Nc2ccccc2)C(=O)C1=P(c1ccccc1)(c1ccccc1)c1ccccc1 ... 40 µM (inactive)

Here is the next item to consider.
Ask | Name the recorded GI50 for O=C1c2c(Br)sc(Br)c2[C@@H](O)[C@H]1O .
Reply | 14.1 µM (inactive)

src = ChEMBL document CHEMBL1201862
